assay: in vivo; set-up: species or system CF-1 normal mice; conditions: CF-1, mouse, iv, total radioactivity, Heart uptake
assay metric: tissue uptake at 1 h (%ID/g)
Answers are plain numbers, in %ID/g.

So what does the record say about tissue uptake at 1 h for CC(C)C[C@H](NC(=O)C[C@H](O)[C@H](CC(C)C)NC(=O)[C@H](Cc1c[nH]cn1)NC(=O)CNC(=O)[C@@H](NC(=O)[C@H](C)NC(=O)[C@H](Cc1c[nH]c2ccccc12)NC(=O)[C@H](CCC(N)=O)NC(=O)[C@@H](Cc1ccccc1)NC(=O)c1ccc(NC(=O)[C@H](CCCCNC(=O)CN2CCN(CC(=O)O)CCN(CC(=O)O)CCN(CC(=O)O)CC2)NC(=O)CCCCCNC(=O)CC[C@H](NC(=O)N[C@@H](CCC(=O)O)C(=O)O)C(=O)O)cc1)C(C)C)C(N)=O [DUPA-6-Ahx-Lys(^111In-DOTA)-AMBA-RM2, metal not drawn] ?
0.12
